- target.entity: recombinant human integrin αvβ6 (Homo sapiens (Human), UniProt P06756+P18564)
- Sequence (P06756 31-992): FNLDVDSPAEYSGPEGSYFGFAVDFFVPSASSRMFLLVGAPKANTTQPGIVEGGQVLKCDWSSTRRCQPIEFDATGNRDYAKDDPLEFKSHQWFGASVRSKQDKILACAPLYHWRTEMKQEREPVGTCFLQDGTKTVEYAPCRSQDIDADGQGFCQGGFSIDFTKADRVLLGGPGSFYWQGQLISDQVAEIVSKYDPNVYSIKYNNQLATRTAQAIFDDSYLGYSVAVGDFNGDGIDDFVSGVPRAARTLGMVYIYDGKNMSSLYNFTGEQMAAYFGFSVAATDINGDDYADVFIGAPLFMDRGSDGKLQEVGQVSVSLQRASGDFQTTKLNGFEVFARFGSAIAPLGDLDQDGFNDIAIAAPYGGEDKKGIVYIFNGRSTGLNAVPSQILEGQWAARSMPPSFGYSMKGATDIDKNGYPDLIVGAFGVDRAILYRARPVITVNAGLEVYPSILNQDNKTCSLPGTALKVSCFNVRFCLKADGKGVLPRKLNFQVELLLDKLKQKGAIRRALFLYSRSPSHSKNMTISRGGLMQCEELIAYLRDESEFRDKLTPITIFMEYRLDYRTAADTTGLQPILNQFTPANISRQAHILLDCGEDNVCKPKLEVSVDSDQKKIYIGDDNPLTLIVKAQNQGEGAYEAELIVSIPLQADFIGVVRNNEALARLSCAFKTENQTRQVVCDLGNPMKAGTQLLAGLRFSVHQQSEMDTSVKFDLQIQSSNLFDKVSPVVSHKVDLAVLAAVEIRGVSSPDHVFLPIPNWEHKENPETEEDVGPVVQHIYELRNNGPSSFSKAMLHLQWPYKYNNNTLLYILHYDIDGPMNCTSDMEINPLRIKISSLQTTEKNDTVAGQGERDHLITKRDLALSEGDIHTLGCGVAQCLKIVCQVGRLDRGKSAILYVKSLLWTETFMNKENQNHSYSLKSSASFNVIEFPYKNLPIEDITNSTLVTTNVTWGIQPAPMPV
- Sequence (P18564 22-707): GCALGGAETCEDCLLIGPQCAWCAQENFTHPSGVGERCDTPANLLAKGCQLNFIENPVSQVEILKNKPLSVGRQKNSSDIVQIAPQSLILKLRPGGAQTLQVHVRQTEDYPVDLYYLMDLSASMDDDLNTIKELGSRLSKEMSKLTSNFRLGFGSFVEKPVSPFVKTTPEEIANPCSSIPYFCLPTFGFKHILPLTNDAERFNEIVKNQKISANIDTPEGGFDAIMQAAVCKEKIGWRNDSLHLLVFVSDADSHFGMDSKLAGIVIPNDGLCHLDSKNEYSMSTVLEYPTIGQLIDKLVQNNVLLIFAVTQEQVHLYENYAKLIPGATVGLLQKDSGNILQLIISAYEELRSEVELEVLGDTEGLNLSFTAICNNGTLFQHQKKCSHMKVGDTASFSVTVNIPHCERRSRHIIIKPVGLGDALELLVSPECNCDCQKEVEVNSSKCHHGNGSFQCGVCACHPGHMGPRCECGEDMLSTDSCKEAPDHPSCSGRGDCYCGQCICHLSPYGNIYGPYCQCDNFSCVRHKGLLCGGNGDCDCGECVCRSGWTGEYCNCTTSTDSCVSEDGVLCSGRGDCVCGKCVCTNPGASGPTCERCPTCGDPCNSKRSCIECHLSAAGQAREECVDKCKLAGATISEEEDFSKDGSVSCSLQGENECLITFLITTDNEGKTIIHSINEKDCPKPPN
- run.description: Solid Phase Integrin αvβ6 Binding Assay (Examples B1, B2)
- condition.summary: TGFβ1 LAP ligand, values given in four ranges, read-out: αvβ6 Inhibition IC50 (nM)-range
- Experimental: Microplates were coated with recombinant human integrin αvβ6 (2 μg/mL) in PBS (100 μL/well 25° C., overnight). The coating solution was removed, washed with wash buffer (0.05% Tween 20; 0.5 mM MnCl2; in 1×TBS). The plate was blocked with 200 μL/well of Block Buffer (1% BSA; 5% sucrose; 0.5 mM MnCl2; in 1×TBS) at 37° C. for 2 h. […] Bound antibody was detected by peroxidase-conjugated streptavidin. The IC50 values for testing compounds were calculated by four-parameter logistic regression. […]
observable: IC50

>>> val("COCCN(CCCCc1ccc2c(n1)NCCC2)CC[C@H](Nc1nccnc1C#N)C(=O)O")
"< 50 nM"
>>> val("O=C(O)[C@H](CCN(CCCCc1ccc2c(n1)NCCC2)CC(F)F)Nc1ncncc1-c1ccccc1")
"> 1000 nM"
>>> val("CO[C@H](C)CN(CCCCc1ccc2c(n1)NCCC2)CC[C@H](Nc1nc(-c2cccnc2)nc2ccccc12)C(=O)O")
"< 50 nM"
>>> val("Cc1nc(N[C@@H](CCN(CCCCc2ccc3c(n2)NCCC3)CCOc2ccc(F)cc2)C(=O)O)c2ccc(F)cc2n1")
"< 50 nM"
>>> val("COCCN(CCCCc1ccc2c(n1)NCCC2)CC[C@H](Nc1cc(-n2cccn2)ncn1)C(=O)O")
"< 50 nM"

**Q:** Identify the measured IC50 of `O=C(O)[C@H](CCN(CCCCc1ccc2c(n1)NCCC2)CCOC(F)F)Nc1ncnc2ccccc12` for recombinant human integrin αvβ6 (Homo sapiens (Human), UniProt P06756+P18564).
**A:** < 50 nM

**Q:** Identify the measured IC50 of `O=C(O)[C@H](CCN(CCCCc1ccc2c(n1)NCCC2)CC(F)F)Nc1cc(-c2ccccc2)ncn1` for recombinant human integrin αvβ6 (Homo sapiens (Human), UniProt P06756+P18564).
**A:** > 1000 nM

**Q:** Identify the measured IC50 of `CO[C@H](C)CN(CCCCc1ccc2c(n1)NCCC2)CC[C@H](Nc1ncc(C#N)cn1)C(=O)O` for recombinant human integrin αvβ6 (Homo sapiens (Human), UniProt P06756+P18564).
**A:** < 50 nM

**Q:** Identify the measured IC50 of `CS(=O)(=O)CCN(CCCCc1ccc2c(n1)NCCC2)CC[C@H](Nc1ccnc(C(F)(F)F)n1)C(=O)O` for recombinant human integrin αvβ6 (Homo sapiens (Human), UniProt P06756+P18564).
**A:** > 1000 nM

**Q:** Identify the measured IC50 of `CS(=O)(=O)CCN(CCCCc1ccc2c(n1)NCCC2)CC[C@H](Nc1ncc(Br)cn1)C(=O)O` for recombinant human integrin αvβ6 (Homo sapiens (Human), UniProt P06756+P18564).
**A:** > 1000 nM

**Q:** Identify the measured IC50 of `O=C(O)[C@H](CCN(CCCCc1ccc2c(n1)NCCC2)CCOc1ccccc1)Nc1ncnc2[nH]ncc12` for recombinant human integrin αvβ6 (Homo sapiens (Human), UniProt P06756+P18564).
**A:** < 50 nM

**Q:** Identify the measured IC50 of `O=C(O)[C@H](CCN(CCCCc1ccc2c(n1)NCCC2)CCOc1ccccc1)Nc1nc(-c2cccnc2)nc2ccccc12` for recombinant human integrin αvβ6 (Homo sapiens (Human), UniProt P06756+P18564).
**A:** < 50 nM

----------
# IC50 annotations
- target.entity: recombinant human integrin αvβ6 (Homo sapiens (Human), UniProt P06756+P18564)
- run.description: Solid Phase Integrin αvβ6 Binding Assay (Examples B1, B2)
- condition.summary: TGFβ1 LAP ligand, values given in four ranges, read-out: αvβ6 Inhibition IC50 (nM)-range

Past entries and their recorded results:
>>> val("O=C(O)[C@H](CCN(CCO)CCCCc1ccc2c(n1)NCCC2)Nc1ncnc2ccccc12 [Compound 75]")
"< 50 nM"
>>> val("COC[C@@H](F)CN(CCCCc1ccc2c(n1)NCCC2)CC[C@H](Nc1cc(-c2ccccc2)ncn1)C(=O)O [Compound 128]")
"> 1000 nM"

**Q:** # get_value(readout='IC50', item= O=C(O)[C@H](CCN(CCCF)CCCCc1ccc2c(n1)NCCC2)Nc1ncnc2ccccc12 [Compound 30] )
**A:** < 50 nM
